Source listed as paper PMC5700166.

- TARGET OF ASSAY: GST-Hu-p50 (Homo sapiens, UniProt P19838 7-356)
- Sequence (P19838 7-356): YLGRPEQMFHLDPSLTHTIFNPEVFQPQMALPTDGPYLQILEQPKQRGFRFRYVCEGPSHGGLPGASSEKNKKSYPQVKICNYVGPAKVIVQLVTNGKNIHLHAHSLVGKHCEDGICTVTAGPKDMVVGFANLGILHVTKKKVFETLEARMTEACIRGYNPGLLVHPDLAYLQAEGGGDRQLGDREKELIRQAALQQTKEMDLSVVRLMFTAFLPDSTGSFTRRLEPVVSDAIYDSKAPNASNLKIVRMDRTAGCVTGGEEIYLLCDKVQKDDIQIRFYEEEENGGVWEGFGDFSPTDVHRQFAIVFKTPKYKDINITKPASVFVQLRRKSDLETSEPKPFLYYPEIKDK
- ASSAY TEXT: protein-binding microarray (PBM); PBM: ~300 nM protein, 6 mM HEPES pH 7.8, 80 mM KCl, 0.5 mM EDTA, 0.5 mM EGTA, 6% glycerol, 35 ng/ul poly-dIdC, 1% milk, 1 h, room temperature; Ap Aiptasia and Nv Nematostella (sea anemones) / Co Capsaspora / Aq Amphimedon (sponge) / Dm Drosophila / Hu human; RHD is the Rel homology domain; high values mean tight binding
- CONDITION LABEL: dsDNA, one strand shown

{"ITEM SEQUENCE": "CCGATTAACATCACATTTCCCCATGATGTTAATCGGGTCTTGATTCGCTTGACGCTGCTG", "TARGET OF ASSAY": "GST-Hu-p50 (Homo sapiens, UniProt P19838 7-356)", "binding signal (z-score)": 5.25}
{"ITEM SEQUENCE": "CCGATTAACATCACGGGTTTTTCTGATGTTAATCGGGTCTTGATTCGCTTGACGCTGCTG", "TARGET OF ASSAY": "GST-Hu-p50 (Homo sapiens, UniProt P19838 7-356)", "binding signal (z-score)": 3.63}
{"ITEM SEQUENCE": "CCGATTAACATCACATATTTCCCTGATGTTAATCGGGTCTTGATTCGCTTGACGCTGCTG", "TARGET OF ASSAY": "GST-Hu-p50 (Homo sapiens, UniProt P19838 7-356)", "binding signal (z-score)": 3.71}
{"ITEM SEQUENCE": "CCGATTAACATCAGTAGTGGGGCTGATGTTAATCGGGTCTTGATTCGCTTGACGCTGCTG", "TARGET OF ASSAY": "GST-Hu-p50 (Homo sapiens, UniProt P19838 7-356)", "binding signal (z-score)": 1.09}
{"ITEM SEQUENCE": "CCGATTAACATCAAAGTGTCCCCTGATGTTAATCGGGTCTTGATTCGCTTGACGCTGCTG", "TARGET OF ASSAY": "GST-Hu-p50 (Homo sapiens, UniProt P19838 7-356)", "binding signal (z-score)": 3.85}
